The measured values listed here are drawn from the nanobody polyreactivity screen of Harvey et al. (2022).

assay overview: yeast display, Sf9 membrane polyspecificity reagent, FACS + sequencing; frameworks hold sequencing errors
quantity name: polyreactivity (PSR sort gate)

As a guide, the following entries are already answered.
seq string: QVQLVESGGGLVQAGGSLRLRCAASGITLAGYVMGWYRQAPGKERELVADISSSGDSTYYADSVKGRFTISRDNAKNTVYLQMNSLKPEDTAVYYCNADQVWWSFDRVLVGYEYWGQGSQVTVSS
polyreactivity (PSR sort gate): low polyreactivity
//
seq string: QVQLVESGGGLVQAGGSLGLSCAASGLTFTHYTMGWYRQAPGKERELVAGISQTGGSTYYADSVKGRFTISRDNAKNTVYLQMNSLKPEDTAVYYCSRVFPRPRTGYYYWGQGTQVTVSS
polyreactivity (PSR sort gate): high polyreactivity
//
seq string: QVQLVESGGGLVQAGGSLRLSSAASGRTFTVNAMGSYRQAPGKERELVAAISQRGASTYYADSVKGRFTISRDNAKNTVYLQMNSLKPVDTAVYYCAAHLRYKYDYWGQGTQVTVSS
polyreactivity (PSR sort gate): high polyreactivity
//
seq string: QVQLVESGGGLVQAGGSLRLSCAASGRIFDVNDMGCYRQAPGKERELVAAITYSGTDTYYADSVKGRITISRDNAKNTVYLQMNSLKPEDTAVYYCAAEFTGWEYIGRDYWGQGTQVTVSS
polyreactivity (PSR sort gate): low polyreactivity
//
seq string: QVQLVESGGGLVQAGGSLRLSCAASGFTFSSNAMGWFRQAPGKERELVAAISFSGTRTYYADSVKGRFTISRDNAKKTVYLQMNSLKPEDTAVYYCAAGRHYGPLSGRTKGMEYWGQGTQVTVSS
polyreactivity (PSR sort gate): high polyreactivity

// query polyreactivity (PSR sort gate) value for entry QVQLVESGGGLVQAGGSLRLSCAASGIIFWPYAMGWYRQAPGKERELVASISTGGSTHYADSVKGRFTISRDNAKNTVYLQLNSLKPEDTAVYYCNADVGPTYSYDYWGQGTQVTVSS
low polyreactivity

Quick one: polyreactivity (PSR sort gate) for QVQLVESGGGLVQAGGSLRLSCAASGSIFFSNVMGWSRPAPGKERELVAAITRGGGTNYADSVKGRFTISRDNAKNTVYLQMNSLKPEDTAVYYCNRDPQKYRWIPRYDYWGQGTQVTVSS ?
low polyreactivity

Can you look up the measured polyreactivity (PSR sort gate) of QLQLVESGGGLVQAGGSLRLSCAASGGTFYTNAMGRYRQAPGKEREFVAAISWIGGSTRYADSVKGRFTISRDNAKNTVYLQMNSLKPEDTEVYFCAAEDVFWVGEYYYEMDYWGQGTQVTVSS for me?
high polyreactivity

What polyreactivity (PSR sort gate) value was documented for this sequence, QVQLVESGGGLVQAGGSLRLSCAASGIIFRVYTMGWYRQAPGKERELVAGISSGDSTSYADSVKGRFTISRDNAKNTVYLQMNSLKPEDTEVYYCNADGKAGGDYDYWGQGTQVTVSS ?
low polyreactivity

Which polyreactivity (PSR sort gate) value belongs to QVQLVESGGGLVQAGGSLRLSCAASGRIFRYYVMGWYRQAPGKEREFVASISGRGASTYYADSVKGRFTISRDNAKNTVYLQMNSLKPEDTAVYYCNADVWLLSYFPEYDYWGQGTQVTVSS ?
low polyreactivity

# lookup: polyreactivity (PSR sort gate) of PVQLVESGGGLVQAGGSLRLSCAASGFISQDNAMGWYRQAPAKERELVATISGSGGITYYADSVKGRFTISRANAKTTVYVQMNSLKPEDTAVYYCNNEISYLSWGYDYWGQGTQVTVSS
low polyreactivity
